Source: ChEMBL document CHEMBL4725368

Tested on: Staphylococcus aureus
protocolSummary: Antibacterial activity against Staphylococcus aureus ATCC 29213 assessed as reduction in bacterial growth by CLSI protocol based microdilution method
Format: functional
measureName: MIC (mg/L)
Kindly answer with a numeric value in mg/L, unit omitted.

// known answers, use as guide
{"smilesRecord": "Nc1nc(-n2cc(C(=O)O)c(=O)c3cc(F)c([C@H]4C[C@@H](O)C4)c(Cl)c32)c(F)cc1F", "assayedSystem": "Staphylococcus aureus", "unitText": "mg/L", "MIC": 0.03}
{"smilesRecord": "Nc1nc(-n2cc(C(=O)O)c(=O)c3cc(F)c(N4CC(N)C4)c(Cl)c32)c(F)cc1F", "assayedSystem": "Staphylococcus aureus", "unitText": "mg/L", "MIC": 0.003}
{"smilesRecord": "Nc1nc(-n2cc(C(=O)O)c(=O)c3cc(F)c(N4CC(O)C4)c(Cl)c32)c(F)cc1F", "assayedSystem": "Staphylococcus aureus", "unitText": "mg/L", "MIC": 0.003}

Could you now look at the following compound, please?
**Q:** Recorded MIC for "Nc1nc(-n2cc(C(=O)O)c(=O)c3cc(F)c([C@H]4C[C@H](O)C4)c(Cl)c32)c(F)cc1F" , please?
**A:** 0.03
